Assayed System: AChE (from electrophorus electricus) (Electrophorus electricus)
Construct: purchased Sigma-Aldrich C3389
Sequence (O42275 24-633): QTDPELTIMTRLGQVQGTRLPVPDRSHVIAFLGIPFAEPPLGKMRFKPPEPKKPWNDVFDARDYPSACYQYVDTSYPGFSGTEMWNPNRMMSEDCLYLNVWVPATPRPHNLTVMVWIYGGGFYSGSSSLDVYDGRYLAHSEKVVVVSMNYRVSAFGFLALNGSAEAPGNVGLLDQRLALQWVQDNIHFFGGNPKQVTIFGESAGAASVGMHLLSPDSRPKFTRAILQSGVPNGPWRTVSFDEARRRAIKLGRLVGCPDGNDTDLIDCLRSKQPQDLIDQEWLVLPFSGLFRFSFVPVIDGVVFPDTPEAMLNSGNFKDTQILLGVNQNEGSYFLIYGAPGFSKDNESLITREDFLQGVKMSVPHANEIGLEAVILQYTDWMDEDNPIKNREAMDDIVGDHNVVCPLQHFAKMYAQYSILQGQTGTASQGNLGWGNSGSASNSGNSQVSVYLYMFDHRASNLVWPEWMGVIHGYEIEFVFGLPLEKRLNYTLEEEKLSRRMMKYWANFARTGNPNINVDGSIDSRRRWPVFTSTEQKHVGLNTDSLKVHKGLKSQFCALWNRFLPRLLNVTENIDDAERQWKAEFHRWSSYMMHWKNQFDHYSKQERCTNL
Test: In vitro AChE inhibition, Ellman's colorimetric method
Type: biochemical
Recorded Metric: log10 IC50 (log10 of the value in nM)
Each number you see is log10 of IC50, and the unit inside the log is nM.

Reference set, count: 5
Molecule: COC(=O)C(C)NC(=O)C(CCCNC(=N)N[N+](=O)[O-])Nc1nc(OC)nc(N2CCN(CCCl)CC2)n1 (centres unmarked) [4f]
log10 IC50: 3.16

Molecule: ClCCN1CCN(c2nc(Nc3ccccc3)nc(N3CCN(CCCl)CC3)n2)CC1 [A]
log10 IC50: 1.71

Molecule: COC(=O)C(C)NC(=O)C(CC(=O)OC(C)(C)C)Nc1nc(OC)nc(N2CCN(CCCl)CC2)n1 (centres unmarked) [4b]
log10 IC50: 1.81

Molecule: COC(=O)C(C)NC(=O)C(Cc1cn(C(=O)OC(C)(C)C)c2ccccc12)Nc1nc(OC)nc(N2CCN(CCCl)CC2)n1 (centres unmarked) [4c]
log10 IC50: 2.06

Molecule: COC(=O)C(C)NC(=O)C(C)(C)Nc1nc(OC)nc(N2CCN(CCCl)CC2)n1 (centres unmarked) [4e]
log10 IC50: 2.90

input: For COC(=O)C(C)NC(=O)C(COCc1ccccc1)Nc1nc(OC)nc(N2CCN(CCCl)CC2)n1 (centres unmarked) [4d] , what is its reported log10 IC50?
output: 2.59

input: For COC(=O)C(C)NC(=O)C(Cc1c[nH]c2ccccc12)Nc1nc(OC)nc(N2CCN(CCCl)CC2)n1 (centres unmarked) [4g] , what is its reported log10 IC50?
output: 2.09

input: For COC(=O)C(C)NC(=O)C(CCCCNC(=O)OC(C)(C)C)Nc1nc(OC)nc(N2CCN(CCCl)CC2)n1 (centres unmarked) [4a] , what is its reported log10 IC50?
output: 1.74

====

Assayed System: BACE1 (from equine serum) (Homo sapiens)
Construct: purchased Sigma-Aldrich CS0010
Test: In vitro BACE1 inhibition, FRET assay
Format: biochemical
Condition Info: mean ± SD of three independent experiments, read-out: BACE1 IC50
Recorded IC50 for the following compounds
Param answer (str): number followed by unit.

Reference set, count: 3
Compound: COC(=O)C(C)NC(=O)C(CC(=O)OC(C)(C)C)Nc1nc(OC)nc(N2CCN(CCCl)CC2)n1 (stereo not shown)
Assayed System: BACE1 (from equine serum) (Homo sapiens)
IC50: 33.8 µM
--
Compound: COC(=O)C(C)NC(=O)C(CCCNC(=N)N[N+](=O)[O-])Nc1nc(OC)nc(N2CCN(CCCl)CC2)n1 (stereo not shown)
Assayed System: BACE1 (from equine serum) (Homo sapiens)
IC50: 52 µM
--
Compound: COC(=O)C(C)NC(=O)C(CCCCNC(=O)OC(C)(C)C)Nc1nc(OC)nc(N2CCN(CCCl)CC2)n1 (stereo not shown)
Assayed System: BACE1 (from equine serum) (Homo sapiens)
IC50: 11.1 µM

Now look at this one.
input: For COC(=O)C(C)NC(=O)C(C)(C)Nc1nc(OC)nc(N2CCN(CCCl)CC2)n1 (stereo not shown) , what is its reported IC50?
output: 51 µM

====

Recorded IC50 for the following compounds
Assayed System: BACE1 (from equine serum) (Homo sapiens, UniProt P56817)
Construct: purchased Sigma-Aldrich CS0010
Sequence (P56817 46-457 limits assumed): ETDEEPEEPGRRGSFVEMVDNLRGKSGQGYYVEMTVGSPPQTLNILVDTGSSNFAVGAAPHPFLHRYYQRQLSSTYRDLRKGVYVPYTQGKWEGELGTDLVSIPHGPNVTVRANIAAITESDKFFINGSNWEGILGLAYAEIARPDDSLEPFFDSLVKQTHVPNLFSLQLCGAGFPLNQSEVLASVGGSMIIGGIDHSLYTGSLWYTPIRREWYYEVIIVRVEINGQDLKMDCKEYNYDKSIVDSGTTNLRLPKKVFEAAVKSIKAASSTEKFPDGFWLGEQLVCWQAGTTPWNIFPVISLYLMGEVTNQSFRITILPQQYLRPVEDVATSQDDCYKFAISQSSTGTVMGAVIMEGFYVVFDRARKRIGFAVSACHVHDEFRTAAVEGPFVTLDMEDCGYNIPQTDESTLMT
Test: In vitro BACE1 inhibition, FRET assay
Assay type: biochemical
Condition Info: mean ± SD of three independent experiments, read-out: BACE1 IC50
Param answer (str): number followed by unit.

Reference set, count: 3
Compound: COC(=O)C(C)NC(=O)C(Cc1cn(C(=O)OC(C)(C)C)c2ccccc12)Nc1nc(OC)nc(N2CCN(CCCl)CC2)n1 (stereo not shown)
IC50: 18.1 µM
//
Compound: COC(=O)C(C)NC(=O)C(Cc1c[nH]c2ccccc12)Nc1nc(OC)nc(N2CCN(CCCl)CC2)n1 (stereo not shown)
IC50: 28.1 µM
//
Compound: COC(=O)C(C)NC(=O)C(COCc1ccccc1)Nc1nc(OC)nc(N2CCN(CCCl)CC2)n1 (stereo not shown)
IC50: 58.1 µM

Now look at this one.
input: For ClCCN1CCN(c2nc(Nc3ccccc3)nc(N3CCN(CCCl)CC3)n2)CC1 , what is its reported IC50?
output: 9 µM
